z-score: recorded values
- Protocol notes: MM1S myeloma cell viability, profiling panel, resazurin fluorescence, basal, 24 h, PK04 Diversity Set (AID 1174);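 note: MM1S multiple myeloma cell line; test concentration not given here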
- Assay conditions: higher = more signal, called active from +8 up or from −8 down
The response must contain the number and no unit.

Completed entries (count: 6):
INSERT INTO measurements (compound, recorded_endpoint, experimental_value) VALUES
  ('C[C@@H]1C=CCC(=O)OC[C@H]2O[C@@H](C=C[C@@H]2O)[C@H](C)C=CCC(=O)OC[C@H]2O[C@H]1C=C[C@@H]2O', 'z-score', 0.689),
  ('Cc1cc(C)c(C(O)C2C=CC3C(=O)N(C)C(=O)C3N2N2CCCCC2)c(C)c1 (configuration not stated)', 'z-score', -1.09),
  ('CCCC=C(CCC)[C@@H](NC(=O)c1ccccc1)c1ccccc1', 'z-score', -1.01),
  ('C=CC[C@@]12N=C(c3ccc(OCCCO)cc3)O[C@@H]1c1ccccc1CN(Cc1ccccc1)C2=O', 'z-score', -3.75),
  ('CC[C@H]1C2=C3C(CC[C@H]4C(OC)OC[C@](C)([C@@H]34)N(C(=O)OC(C)(C)C)C2)C(CO)C1CO (some centres not stated)', 'z-score', -0.713),
  ('O=C1c2ccccc2[C@](Cc2ccccc2I)(C(=O)NCC(F)(F)F)[C@H](c2ccc(CO)cc2)N1Cc1ccccc1C(F)(F)F', 'z-score', 1.13);

// below: z-score requested for another compound
Lookup result for `COCCOC(=O)N1C(=O)[C@@]2(c3cc(C#CCNC(N)=O)ccc31)[C@H](c1ccc(OCCO)cc1)N1[C@H](c3ccccc3)[C@H](c3ccccc3)OC(=O)[C@H]1[C@@H]2C(=O)N1CCCCCCC1` ; measured z-score: 1.2
